Target: GST-tagged-Wee1 kinase (Homo sapiens)
Sequence (P30291 whole entry): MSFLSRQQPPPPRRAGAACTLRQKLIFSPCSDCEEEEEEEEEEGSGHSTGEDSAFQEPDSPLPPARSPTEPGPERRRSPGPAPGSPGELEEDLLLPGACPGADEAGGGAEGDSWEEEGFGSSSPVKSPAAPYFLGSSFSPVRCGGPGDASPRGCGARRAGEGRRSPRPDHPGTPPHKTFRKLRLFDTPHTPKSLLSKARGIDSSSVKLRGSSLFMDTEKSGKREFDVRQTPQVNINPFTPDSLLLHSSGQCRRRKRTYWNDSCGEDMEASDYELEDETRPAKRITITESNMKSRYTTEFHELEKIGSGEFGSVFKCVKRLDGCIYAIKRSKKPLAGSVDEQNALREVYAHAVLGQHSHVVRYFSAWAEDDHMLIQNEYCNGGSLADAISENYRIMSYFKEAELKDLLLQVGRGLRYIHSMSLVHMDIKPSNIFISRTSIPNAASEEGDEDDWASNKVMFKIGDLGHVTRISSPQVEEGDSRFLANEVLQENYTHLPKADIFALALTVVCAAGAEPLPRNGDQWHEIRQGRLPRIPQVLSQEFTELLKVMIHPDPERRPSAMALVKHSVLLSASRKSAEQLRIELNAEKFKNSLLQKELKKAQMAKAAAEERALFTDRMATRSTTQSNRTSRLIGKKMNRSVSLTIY
Assay: Wee1 time-resolved fluorescence equilibrium binding assay (displacement of Oregon Green-labeled ATP-competitive kinase probe)
READOUT_NAME: Ki

Below: 6 compounds and their reported Ki.
COMPOUND	STUDY_TARGET	READOUT_NAME	REPORTED_MEASUREMENT
C=CCn1nc(-c2ccccc2)c2nc(Nc3ccc(S(=O)(=O)N4CCOCC4)cc3)ncc2c1=O	GST-tagged-Wee1 kinase (Homo sapiens)	Ki	> 3140 nM
Cc1nn(-c2c(Cl)cccc2Cl)c(=O)c2cnc(Nc3ccc4c(c3)CNCC4(C)C)nc12	GST-tagged-Wee1 kinase (Homo sapiens)	Ki	0.18 nM
Cn1cnc(-c2nn(-c3ncccc3Cl)c(=O)c3cnc(Nc4ccc5c(c4)CNCC5)nc23)c1	GST-tagged-Wee1 kinase (Homo sapiens)	Ki	16 nM
C=CCn1nc(-c2cccs2)c2nc(Nc3ccc(N4CCCC4=O)cc3)ncc2c1=O	GST-tagged-Wee1 kinase (Homo sapiens)	Ki	75 nM
CC(=O)c1cc(-c2nn(-c3c(Cl)cccc3Cl)c(=O)c3cnc(Nc4ccc(N5CCN(C)CC5)cc4)nc23)ccn1	GST-tagged-Wee1 kinase (Homo sapiens)	Ki	0.1 nM
Cc1nn(-c2ncccc2Cl)c(=O)c2cnc(Nc3ccc4c(c3)CN(C)CC43CC3)nc12	GST-tagged-Wee1 kinase (Homo sapiens)	Ki	1.1 nM

Quick one: give me Ki for each item below, same order please.
1. Cc1nn(-c2ccccc2Cl)c(=O)c2cnc(Nc3ccc4c(c3)CC(N(C)C)C4)nc12 (centres unmarked)
2. C=CCn1nc(-c2cccs2)c2nc(Nc3ccc4c(c3)CN(C)CC43CC3)ncc2c1=O
3. C=CCn1nc(-c2ccco2)c2nc(Nc3ccc4c(c3)CN(C)CC4)ncc2c1=O
4. C=CCn1nc(-c2ccco2)c2nc(Nc3ccc(N4CCCC4=O)cc3)ncc2c1=O
5. CNCc1cccc(-c2nn(-c3c(Cl)cccc3Cl)c(=O)c3cnc(Nc4ccc(N5CCN(C)CC5)cc4)nc23)c1
6. CCC(O)(CC)c1cccc(-c2nn(-c3c(Cl)cccc3Cl)c(=O)c3cnc(Nc4ccc(N5CCN(C)CC5)cc4)nc23)n1
7. C=CCn1nc(-c2ccccc2)c2nc(Nc3ccc(N4CCCC4=O)cc3)ncc2c1=O
8. COc1cc(Nc2ncc3c(=O)n(-c4ccccc4C)nc(-c4cccs4)c3n2)ccc1N1CCN(C(C)C)CC1

# output
0.17 nM
3 nM
2 nM
58 nM
0.02 nM
36 nM
57 nM
0.7 nM
